- Test system: 855422-203-R-J1-PDC spheroids with HUVEC/MSC, viability
- run-description: Anticancer human tumor 855422-203-R-J1-PDC patient-derived bladder carcinoma cell line growth inhibition [PI3K]; active means viability on the fitted dose curve at most 10% of control; inactive means the rest
- settings: second compound 0.316 µM; first compound 0.0316 µM
- Description: Combinatorial screen of targeted agents with the PI3K inhibitors inavolisib, alpelisib, duvelisib, and copanlisib in multi-cell type tumor spheroids A high-throughput screen of multi-cell type tumor spheroids was designed to identify active combinations of targeted small molecules and PI3K pathway inhibitors. […] Compounds. […] If the clinical Cmax for an agent had not been determined, the highest concentration tested was 10 microM. […]
Reply using exactly one outcome from yes (active), no (inactive)

Solved cases below.
compound	label-class
CC(C)NCC(C(=O)N1CCN(c2ncnc3c2C(C)CC3O)CC1)c1ccc(Cl)cc1 (stereo unspecified) + COc1c(OCCCN2CCOCC2)ccc2c3n(c(=NC(=O)c4cnc(N)nc4)nc12)CCN3	no
C=CC(=O)N1CCN(c2nc(=O)n(-c3c(C)ccnc3C(C)C)c3nc(-c4c(O)cccc4F)c(F)cc23)C(C)C1 (stereo unspecified) + COc1c(OCCCN2CCOCC2)ccc2c3n(c(=NC(=O)c4cnc(N)nc4)nc12)CCN3	yes
C#Cc1c(F)ccc2cc(O)cc(-c3ncc4c(N5CC6CCC(C5)N6)nc(OCC56CCCN5CC(F)C6)nc4c3F)c12 (stereo unspecified) + CC(Nc1ccc2c(c1)OCCn1cc(N3C(=O)OCC3C(F)F)nc1-2)C(N)=O	no
C[C@@H](NC(=O)c1ncnc(N)c1Cl)c1ncc(C(=O)Nc2cc(C(F)(F)F)c(Cl)cn2)s1 + Cc1nc(NC(=O)N2CCCC2C(N)=O)sc1-c1ccnc(C(C)(C)C(F)(F)F)c1	no
C=CC(=O)N1CCN(c2nc(=O)n(-c3c(C)ccnc3C(C)C)c3nc(-c4c(O)cccc4F)c(F)cc23)C(C)C1 (stereo unspecified) + CC(Nc1ccc2c(c1)OCCn1cc(N3C(=O)OCC3C(F)F)nc1-2)C(N)=O	no

Field: outcome | Entry: CC1(C)CCC(CN2CCN(c3ccc(C(=O)NS(=O)(=O)c4ccc(NCC5CCOCC5)c([N+](=O)[O-])c4)c(Oc4cnc5[nH]ccc5c4)c3)CC2)=C(c2ccc(Cl)cc2)C1 + CC(Nc1ncnc2nc[nH]c12)c1cc2cccc(Cl)c2c(=O)n1-c1ccccc1
no

Field: outcome | Entry: C#Cc1c(F)ccc2cc(O)cc(-c3ncc4c(N5CC6CCC(C5)N6)nc(OCC56CCCN5CC(F)C6)nc4c3F)c12 (stereo unspecified) + CC(Nc1ncnc2nc[nH]c12)c1cc2cccc(Cl)c2c(=O)n1-c1ccccc1
no

Field: outcome | Entry: CNC(=O)c1ccc(N2C(=S)N(c3ccc(C#N)c(C(F)(F)F)c3)C(=O)C2(C)C)cc1F + Cc1nc(NC(=O)N2CCCC2C(N)=O)sc1-c1ccnc(C(C)(C)C(F)(F)F)c1
no

Field: outcome | Entry: CNC(=O)c1ccc(N2C(=S)N(c3ccc(C#N)c(C(F)(F)F)c3)C(=O)C2(C)C)cc1F + CC(Nc1ccc2c(c1)OCCn1cc(N3C(=O)OCC3C(F)F)nc1-2)C(N)=O
no

---

- Tested on: 855422-203-R-J1-PDC spheroids with HUVEC/MSC, viability
- run-description: Anticancer human tumor 855422-203-R-J1-PDC cell line growth inhibition [PI3K]
- settings: compound 0.1 µM; active compounds read low
reported-endpoint: viability, T/C

// known answers, use as guide
molecule	readout-value
CCCS(=O)(=O)Nc1ccc(F)c(C(=O)c2c[nH]c3ncc(-c4ccc(Cl)cc4)cc23)c1F	96.7% [middle of 4 runs]
CC(C)n1nc(-c2ccc3oc(N)nc3c2)c2c(N)ncnc21	17.8% [middle of 4 runs]
CC(=O)c1c(C)c2cnc(Nc3ccc(N4CCNCC4)cn3)nc2n(C2CCCC2)c1=O	83.8% [middle of 4 runs]
CC(C)NCC(C(=O)N1CCN(c2ncnc3c2C(C)CC3O)CC1)c1ccc(Cl)cc1 (stereo not given)	82.9% [middle of 4 runs]

Now for a further molecule.
Tell me its viability, T/C given Cn1ncc(Cl)c1-c1cc(C(=O)NC(CN)Cc2cccc(F)c2)sc1Cl (stereo not given) as the entry.
75.2% [middle of 4 runs]

---

- System: 855422-203-R-J1-PDC spheroids with HUVEC/MSC, viability
- run-description: Anticancer human tumor 855422-203-R-J1-PDC cell line growth inhibition [PI3K]; active = viability on the fitted dose curve at most 10% of control; inactive = the rest;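 further: agents incubated with spheroids for one week before read-out; 100% = DMSO vehicle-treated control wells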
- settings: second compound 0.316 µM; first compound 0.01 µM
Reply using exactly one outcome from active, inactive

Solved cases below.
compound	label-class
Cn1ncnc1[C@H]1c2n[nH]c(=O)c3cc(F)cc(c23)N[C@@H]1c1ccc(F)cc1 + CC(Nc1ncnc2nc[nH]c12)c1cc2cccc(Cl)c2c(=O)n1-c1ccccc1	inactive
Cn1ncnc1[C@H]1c2n[nH]c(=O)c3cc(F)cc(c23)N[C@@H]1c1ccc(F)cc1 + CC(Nc1ccc2c(c1)OCCn1cc(N3C(=O)OCC3C(F)F)nc1-2)C(N)=O	inactive
Cn1ncnc1[C@H]1c2n[nH]c(=O)c3cc(F)cc(c23)N[C@@H]1c1ccc(F)cc1 + COc1c(OCCCN2CCOCC2)ccc2c3n(c(=NC(=O)c4cnc(N)nc4)nc12)CCN3	active

Field: outcome | Entry: CC(C)n1nc(-c2ccc3oc(N)nc3c2)c2c(N)ncnc21 + CC(Nc1ccc2c(c1)OCCn1cc(N3C(=O)OCC3C(F)F)nc1-2)C(N)=O
inactive

---

- Test system: 855422-203-R-J1-PDC spheroids with HUVEC/MSC, viability
- run-description: Anticancer human tumor 855422-203-R-J1-PDC cell line growth inhibition [PI3K]; active means viability on the fitted dose curve at most 10% of control; inactive means the rest;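 further: agents incubated with spheroids for one week before read-out; 100% = DMSO vehicle-treated control wells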
- settings: second compound 0.316 µM; first compound 1 µM
Reply using exactly one outcome from active, inactive

Solved cases below.
compound	label-class
CC(Cn1ccc(-c2ccc(C#N)c(Cl)c2)n1)NC(=O)c1cc(C(C)O)[nH]n1 (stereo not drawn) + COc1c(OCCCN2CCOCC2)ccc2c3n(c(=NC(=O)c4cnc(N)nc4)nc12)CCN3	active
CNC(=O)c1ccc(N2C(=S)N(c3ccc(C#N)c(C(F)(F)F)c3)C(=O)C2(C)C)cc1F + Cc1nc(NC(=O)N2CCCC2C(N)=O)sc1-c1ccnc(C(C)(C)C(F)(F)F)c1	inactive

Field: outcome | Entry: C[C@@H](NC(=O)c1ncnc(N)c1Cl)c1ncc(C(=O)Nc2cc(C(F)(F)F)c(Cl)cn2)s1 + CC(Nc1ncnc2nc[nH]c12)c1cc2cccc(Cl)c2c(=O)n1-c1ccccc1
inactive

---

This section presents compounds with their documented viability, T/C values.
- Test system: 855422-203-R-J1-PDC spheroids with HUVEC/MSC, viability
- run-description: Anticancer human tumor 855422-203-R-J1-PDC cell line growth inhibition [PI3K];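 further: agents incubated with spheroids for one week before read-out; 100% = DMSO vehicle-treated control wells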
- settings: second compound 10 µM; first compound 0.1 µM; active compounds read low
- Source text: Combinatorial screen of targeted agents with the PI3K inhibitors inavolisib, alpelisib, duvelisib, and copanlisib in multi-cell type tumor spheroids A high-throughput screen of multi-cell type tumor spheroids was designed to identify active combinations of targeted small molecules and PI3K pathway inhibitors. […] Compounds. […] If the clinical Cmax for an agent had not been determined, the highest concentration tested was 10 microM. […]
Use % as the unit, but write only the number.

compound	reported-endpoint	readout-value
CC(C)NCC(C(=O)N1CCN(c2ncnc3c2C(C)CC3O)CC1)c1ccc(Cl)cc1 (stereo not given) + CC(Nc1ncnc2nc[nH]c12)c1cc2cccc(Cl)c2c(=O)n1-c1ccccc1	viability, T/C	81.9
Cn1ncnc1[C@H]1c2n[nH]c(=O)c3cc(F)cc(c23)N[C@@H]1c1ccc(F)cc1 + Cc1nc(NC(=O)N2CCCC2C(N)=O)sc1-c1ccnc(C(C)(C)C(F)(F)F)c1	viability, T/C	21.3
CC1(C)CCC(Nc2ncc(C(F)(F)F)c(-c3c[nH]c4c(P(C)(C)=O)c(C#N)ccc34)n2)CN1 (stereo not given) + Cc1nc(NC(=O)N2CCCC2C(N)=O)sc1-c1ccnc(C(C)(C)C(F)(F)F)c1	viability, T/C	10.2
C#Cc1c(F)ccc2cc(O)cc(-c3ncc4c(N5CC6CCC(C5)N6)nc(OCC56CCCN5CC(F)C6)nc4c3F)c12 (stereo not given) + CC(Nc1ncnc2nc[nH]c12)c1cc2cccc(Cl)c2c(=O)n1-c1ccccc1	viability, T/C	82.8

Tell me its viability, T/C given C[C@@H](NC(=O)c1ncnc(N)c1Cl)c1ncc(C(=O)Nc2cc(C(F)(F)F)c(Cl)cn2)s1 + Cc1nc(NC(=O)N2CCCC2C(N)=O)sc1-c1ccnc(C(C)(C)C(F)(F)F)c1 as the entry.
18.9

---

- Test system: 855422-203-R-J1-PDC spheroids with HUVEC/MSC, viability
- run-description: Anticancer human tumor 855422-203-R-J1-PDC cell line growth inhibition [PI3K];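 further: agents incubated with spheroids for one week before read-out; 100% = DMSO vehicle-treated control wells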
- settings: second compound 10 µM; first compound 0.0316 µM; active compounds read low
Note to self: viability, T/C under 40% means condition met, ties and anything higher get condition not met.

Solved cases below.
compound	label-class
Cn1ncnc1[C@H]1c2n[nH]c(=O)c3cc(F)cc(c23)N[C@@H]1c1ccc(F)cc1 + Cc1nc(NC(=O)N2CCCC2C(N)=O)sc1-c1ccnc(C(C)(C)C(F)(F)F)c1	condition met
CC(C)n1nc(-c2ccc3oc(N)nc3c2)c2c(N)ncnc21 + CC(Nc1ncnc2nc[nH]c12)c1cc2cccc(Cl)c2c(=O)n1-c1ccccc1	condition met
CC(C)NCC(C(=O)N1CCN(c2ncnc3c2C(C)CC3O)CC1)c1ccc(Cl)cc1 (stereo unspecified) + Cc1nc(NC(=O)N2CCCC2C(N)=O)sc1-c1ccnc(C(C)(C)C(F)(F)F)c1	condition met
C#Cc1c(F)ccc2cc(O)cc(-c3ncc4c(N5CC6CCC(C5)N6)nc(OCC56CCCN5CC(F)C6)nc4c3F)c12 (stereo unspecified) + CC(Nc1ncnc2nc[nH]c12)c1cc2cccc(Cl)c2c(=O)n1-c1ccccc1	condition not met
CC(=O)c1c(C)c2cnc(Nc3ccc(N4CCNCC4)cn3)nc2n(C2CCCC2)c1=O + CC(Nc1ncnc2nc[nH]c12)c1cc2cccc(Cl)c2c(=O)n1-c1ccccc1	condition not met

Read the next record carefully.
For CC(C)n1nc(-c2ccc3oc(N)nc3c2)c2c(N)ncnc21 + Cc1nc(NC(=O)N2CCCC2C(N)=O)sc1-c1ccnc(C(C)(C)C(F)(F)F)c1 , is the recorded viability, T/C below the cut-off of 40%?
condition met
